Kindly supply the reported pKi values for the records listed here.
biological target: Neuronal acetylcholine receptor; alpha3/beta4 (Homo sapiens, UniProt P30926+P32297); experiment: Displacement of [3H]epibatidine from human alpha3beta4 nAChR expressed in HEK293 cell membranes
Sequence (P30926 whole entry): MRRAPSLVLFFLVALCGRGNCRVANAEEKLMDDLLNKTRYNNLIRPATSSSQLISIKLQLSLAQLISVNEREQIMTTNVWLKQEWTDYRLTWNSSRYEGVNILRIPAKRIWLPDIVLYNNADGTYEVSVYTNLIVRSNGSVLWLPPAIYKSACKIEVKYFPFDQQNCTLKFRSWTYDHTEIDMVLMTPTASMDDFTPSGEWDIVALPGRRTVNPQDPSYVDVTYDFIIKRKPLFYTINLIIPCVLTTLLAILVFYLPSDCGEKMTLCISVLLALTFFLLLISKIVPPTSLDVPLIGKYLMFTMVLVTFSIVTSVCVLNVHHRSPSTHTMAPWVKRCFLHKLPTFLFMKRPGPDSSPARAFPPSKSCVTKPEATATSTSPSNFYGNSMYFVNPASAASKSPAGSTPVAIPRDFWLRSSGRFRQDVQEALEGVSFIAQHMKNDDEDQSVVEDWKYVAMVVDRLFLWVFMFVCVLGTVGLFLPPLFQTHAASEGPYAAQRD
Sequence (P32297 whole entry): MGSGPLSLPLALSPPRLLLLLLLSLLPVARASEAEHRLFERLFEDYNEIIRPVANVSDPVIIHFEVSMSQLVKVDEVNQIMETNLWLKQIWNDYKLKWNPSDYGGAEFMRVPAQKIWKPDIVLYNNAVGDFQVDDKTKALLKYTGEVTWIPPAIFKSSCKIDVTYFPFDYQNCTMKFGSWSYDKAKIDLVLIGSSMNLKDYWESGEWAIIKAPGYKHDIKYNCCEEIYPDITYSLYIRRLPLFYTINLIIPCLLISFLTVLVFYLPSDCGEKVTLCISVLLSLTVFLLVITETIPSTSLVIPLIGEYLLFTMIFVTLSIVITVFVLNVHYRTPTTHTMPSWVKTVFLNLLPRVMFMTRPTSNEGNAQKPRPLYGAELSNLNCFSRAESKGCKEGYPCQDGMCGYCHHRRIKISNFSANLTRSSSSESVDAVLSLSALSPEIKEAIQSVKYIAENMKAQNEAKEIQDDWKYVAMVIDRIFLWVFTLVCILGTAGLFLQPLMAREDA
By convention, pKi is the negative base-10 log of a molar concentration.

Quick note, pKi for FC(F)(F)c1ccc(Nc2ccc(N3CC4CC(C3)N4)cn2)cc1 landed at 9.09

Quick note, pKi for O=[N+]([O-])c1ccc(Nc2ccc(N3CC4CC(C3)N4)cn2)cc1 landed at 7.60

Quick note, pKi for Cc1ccc(Nc2cncc(N3CC4CC(C3)N4)c2)cc1 landed at 8.85

Quick note, pKi for Clc1ccc(Nc2cncc(N3CC4CC(C3)N4)c2)cc1 landed at 8.92

Quick note, pKi for O=[N+]([O-])c1ccc(Nc2cncc(N3CC4CC(C3)N4)c2)cc1 landed at 9.16

----------
species: Rattus norvegicus; experiment: Selectivity ratio of Ki for alpha7 nAChR in rat hippocampal membranes to Ki for alpha4beta2 nAChR in rat cortex membranes; assay type: cell membranes
Please assign a class to every record based on measured Ratio Ki, with ranges low: < 200; middle: ≥ 200 and < 2000; high: ≥ 2000

Looking at Oc1ccc(Nc2cncc(N3CC4CC(C3)N4)c2)cc1 , which class would you pick? high

Looking at c1ccc(Nc2ccc(N3CC4CC(C3)N4)nn2)cc1 , which class would you pick? low

Looking at Clc1ccc(Nc2cncc(N3CC4CC(C3)N4)c2)cc1 , which class would you pick? middle

Looking at Clc1ccc(Nc2ccc(N3CC4CC(C3)N4)nn2)cc1Cl , which class would you pick? low

Looking at Cc1ccc(Nc2ccc(N3CC4CC(C3)N4)nn2)cc1 , which class would you pick? middle

Looking at COc1ccc(Nc2cncc(N3CC4CC(C3)N4)c2)cc1 , which class would you pick? high

Looking at Fc1ccc(Nc2ccc(N3CC4CC(C3)N4)nn2)cc1 , which class would you pick? low

Looking at O=[N+]([O-])c1ccc(Nc2ccc(N3CC4CC(C3)N4)cn2)cc1 , which class would you pick? high

Looking at Clc1cccc(Nc2ccc(N3CC4CC(C3)N4)nn2)c1 , which class would you pick? low

Looking at Cc1ccc(Nc2ccc(N3CC4CC(C3)N4)cn2)cc1 , which class would you pick? middle

Looking at Oc1ccc(Nc2ccc(N3CC4CC(C3)N4)cn2)cc1 , which class would you pick? middle

Looking at c1cc2c(cc1Nc1ccc(N3CC4CC(C3)N4)cn1)OCO2 , which class would you pick? low

Looking at Clc1cccc(Nc2ccc(N3CC4CC(C3)N4)cn2)c1 , which class would you pick? middle

----------
target: Neuronal acetylcholine receptor subunit alpha-7 (Rattus norvegicus); assay: Displacement of [125I]alpha-bungarotoxin from alpha7 nAChR in rat hippocampal membranes
Sequence (Q05941 whole entry): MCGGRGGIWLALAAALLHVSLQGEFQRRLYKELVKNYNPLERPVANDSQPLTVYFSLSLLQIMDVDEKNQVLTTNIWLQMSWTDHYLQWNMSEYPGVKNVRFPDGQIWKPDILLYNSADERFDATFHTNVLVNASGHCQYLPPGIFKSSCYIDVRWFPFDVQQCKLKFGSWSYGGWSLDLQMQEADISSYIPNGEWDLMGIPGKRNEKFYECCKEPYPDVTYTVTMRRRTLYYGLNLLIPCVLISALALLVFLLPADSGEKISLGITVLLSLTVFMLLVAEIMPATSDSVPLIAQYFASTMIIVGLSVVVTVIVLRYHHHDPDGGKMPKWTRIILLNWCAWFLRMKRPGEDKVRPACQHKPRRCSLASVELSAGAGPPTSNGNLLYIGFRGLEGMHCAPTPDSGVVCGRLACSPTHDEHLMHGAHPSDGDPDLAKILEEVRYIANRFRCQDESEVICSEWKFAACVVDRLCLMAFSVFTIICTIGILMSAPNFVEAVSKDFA
measured.attribute: pKi
By convention, pKi is the negative base-10 log of a molar concentration.

Quick note, pKi for COc1ccc(Nc2ccc(N3CC4CC(C3)N4)nn2)cc1 landed at 4.30

Quick note, pKi for COc1ccc(Nc2ccc(N3CC4CC(C3)N4)cn2)cc1 landed at 5.52

Quick note, pKi for c1cc2c(cc1Nc1ccc(N3CC4CC(C3)N4)cn1)OCO2 landed at 5.21

Quick note, pKi for O=[N+]([O-])c1ccc(Nc2ccc(N3CC4CC(C3)N4)cn2)cc1 landed at 5.39

Quick note, pKi for Clc1ccc(Nc2cncc(N3CC4CC(C3)N4)c2)cc1 landed at 6.94

Quick note, pKi for O=[N+]([O-])c1ccc(Nc2ccc(N3CC4CC(C3)N4)nn2)cc1 landed at 5.16

Quick note, pKi for Cc1ccc(Nc2cncc(N3CC4CC(C3)N4)c2)cc1 landed at 6.52

Quick note, pKi for CN(c1ccccc1)c1cncc(N2CC3CC(C2)N3)c1 landed at 6.50
